Consider the following molecules and their measured MIC readings.
Test system: Escherichia coli
Assay: In vitro antibacterial activity measured as minimum inhibitory concentration, was evaluated on Escherichia coli ATCC 23559(Ec).
Assay type: functional
Conditions: Escherichia coli, ATCC 23559; read-out: MIC
Give the number; µg/mL is assumed, so skip it.

Kindly note the recorded MIC for `C[C@H]1COc2c(N3CC(N)C3)c(F)cc3c(=O)c(C(=O)O)cn1c23` , which is 0.015

Attention now shifts to the item below.
Kindly note the recorded MIC for C[C@H]1[C@H](N)CN1c1nc2c(cc1F)c(=O)c(C(=O)O)cn2-c1ccc(F)cc1F (single isomer, unassigned) , which is 0.06

###

Consider the following molecules and their measured log10(MIC) readings.
Test system: Escherichia coli
Assay: In vitro antibacterial activity measured as minimum inhibitory concentration, was evaluated on Escherichia coli ATCC 23559(Ec).
Assay type: functional
Settings: Escherichia coli, ATCC 23559; read-out: MIC
Heads up, the numbers here are log10 of MIC in µg/mL units.

Worked cases, answers included:
Kindly note the recorded log10(MIC) for `C[C@@H]1[C@@H](N)CN1c1c(F)c(N)c2c(=O)c(C(=O)O)cn(-c3ccc(F)cc3F)c2c1F` , which is -1.52

Kindly note the recorded log10(MIC) for `C[C@@H]1[C@@H](N)CN1c1nc2c(cc1F)c(=O)c(C(=O)O)cn2C1CC1` , which is -0.92

Kindly note the recorded log10(MIC) for `C[C@@H]1[C@@H](N)CN1c1cc2c(cc1F)c(=O)c(C(=O)O)cn2-c1ccc(F)cc1F` , which is -0.30

Kindly note the recorded log10(MIC) for CC1C(N)CN1c1nc2c(cc1F)c(=O)c(C(=O)O)cn2-c1ccc(F)cc1F (stereo unspecified) , which is -0.92

Kindly note the recorded log10(MIC) for CC1C(N)CN1c1c(F)cc2c(=O)c(C(=O)O)cn(-c3ccc(F)cc3F)c2c1F (stereo unspecified) , which is -1.22

Next:
Kindly note the recorded log10(MIC) for CC1C(N)CN1c1c(F)c(N)c2c(=O)c(C(=O)O)cn(C3CC3)c2c1F (stereo unspecified) , which is -1.82

Kindly note the recorded log10(MIC) for `C[C@H](N)C(=O)N[C@@H](C)C(=O)N[C@@H]1CN(c2nc3c(cc2F)c(=O)c(C(=O)O)cn3C2CC2)[C@H]1C` , which is 0.30

Kindly note the recorded log10(MIC) for `Cc1c(F)c(N2C[C@H](N)[C@H]2C)nc2c1c(=O)c(C(=O)O)cn2C1CC1` , which is -0.92

Kindly note the recorded log10(MIC) for `C[C@H]1[C@@H](N)CN1c1c(F)cc2c(=O)c(C(=O)O)cn(C3CC3)c2c1F` , which is -0.60

Kindly note the recorded log10(MIC) for `C[C@@H]1[C@@H](N)CN1c1c(F)c(N)c2c(=O)c(C(=O)O)cn(C3CC3)c2c1F` , which is -1.82

###

Consider the following compounds and their measured log10 of MIC readings.
Test system: Escherichia coli
Experiment: In vitro antibacterial activity measured as minimum inhibitory concentration, was evaluated on Escherichia coli ATCC 23559(Ec).
Type: functional
Settings: Escherichia coli, ATCC 23559; read-out: MIC
Heads up, the numbers here are log10 of MIC in µg/mL units.

Worked cases, answers included:
Kindly note the recorded log10 of MIC for `CCn1cc(C(=O)O)c(=O)c2c(N)c(F)c(N3C[C@H](N)[C@H]3C)c(F)c21` , which is -0.60

Kindly note the recorded log10 of MIC for `CCC[C@H](N)C(=O)N[C@@H]1CN(c2cc3c(cc2F)c(=O)c(C(=O)O)cn3-c2ccc(F)cc2F)[C@H]1C` , which is -0.30

Kindly note the recorded log10 of MIC for `C[C@@H](N)C(=O)N[C@@H]1CN(c2nc3c(cc2F)c(=O)c(C(=O)O)cn3C2CC2)[C@H]1C` , which is -0.60

Kindly note the recorded log10 of MIC for `C[C@@H]1[C@@H](N)CN1c1c(F)cc2c(=O)c(C(=O)O)cn(-c3ccc(F)cc3F)c2c1F` , which is -1.22

Kindly note the recorded log10 of MIC for CC1C(N)CN1c1nc2c(cc1F)c(=O)c(C(=O)O)cn2C1CC1 (stereo unspecified) , which is -1.52

Next:
Kindly note the recorded log10 of MIC for `C[C@H](N)C(=O)N[C@@H]1CN(c2cc3c(cc2F)c(=O)c(C(=O)O)cn3-c2ccc(F)cc2F)[C@H]1C` , which is 0.00
